TESTED_TARGET: T1, UbaA, E1-like SAMP-activating enzyme of Haloferax volcanii, purified wild type (Haloferax volcanii, UniProt D4GSF3 1-270)
T1 sequence (looked up): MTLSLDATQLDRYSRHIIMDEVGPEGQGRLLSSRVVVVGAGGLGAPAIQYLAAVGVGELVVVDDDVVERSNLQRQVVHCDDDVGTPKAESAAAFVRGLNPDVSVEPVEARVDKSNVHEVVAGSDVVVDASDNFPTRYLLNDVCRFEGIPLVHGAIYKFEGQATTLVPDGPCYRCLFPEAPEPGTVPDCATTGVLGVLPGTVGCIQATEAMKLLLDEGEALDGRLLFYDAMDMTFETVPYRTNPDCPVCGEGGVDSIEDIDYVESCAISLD
PROTOCOL_NOTES: ITC
Assignment: determine reported pKd for the given binders.
Field pKd (float): negative decimal logarithm of the concentration in molar.

In one line, give reported pKd of the entry SAMP2, small ubiquitin-like archaeal modifier protein 2, purified (natural protein, Haloferax volcanii, UniProt D4GZE7 1-66, looked up) MNVTVEVVGEETSEVAVDDDGTYADLVRAVDLSPHEVTVLVDGRPVPEDQSVEVDRVKVLRLIKGG .
5.37

In one line, give reported pKd of the entry SAMP1, small ubiquitin-like archaeal modifier protein 1, purified (natural protein, Haloferax volcanii, UniProt D4GUF6 1-87, looked up) MEWKLFADLAEVAGSRTVRVDVDGDATVGDALDALVGAHPALESRVFGDDGELYDHINVLRNGEAAALGEATAAGDELALFPPVSGG .
5.92
